# System: DU-145 prostate
# Experimental details: NCI tumour cell line growth inhibition, 48 h
Parameter measured: TGI

// query Look up TGI: `Cn1c(=O)cc2c3c(c(NCCCO)ccc31)C(=O)c1ccccc1-2`
// result > 100 µM

// query Look up TGI: `O=C1OCC(C#Cc2ccccc2)=C1Cl`
// result 11.8 µM

// query Look up TGI: `CC(=O)Oc1ccc2c(c1)c1c(=O)oc(N(C)C)nc1n2Cc1ccccc1`
// result > 100 µM

// query Look up TGI: `COc1cc(OC)c2c(=O)c(O)c(-c3ccc(OC)c(OC)c3)oc2c1`
// result > 100 µM

// query Look up TGI: CCN(CC)c1ccc2c(c1)Oc1nc(N)c(C#N)c(N)c1C2Sc1ccc(SC)cc1 (stereo not drawn)
// result 3.21 µM

// query Look up TGI: `COc1ccc2[nH]cc(-c3nc(-c4cn(C)c5ccncc45)cs3)c2c1`
// result 3.11 µM

// query Look up TGI: `CC(=O)/C=C/C1=C(c2cc3ccccc3s2)c2ccccc2CC1`
// result > 100 µM

// query Look up TGI: `CC(=O)Nc1ccc(CNc2cc(=O)[nH]c(=O)[nH]2)cc1`
// result > 100 µM

// query Look up TGI: O=C1NC2(CCCCC2)N=C2C(Cl)CCCC12Cl (stereo not drawn)
// result > 100 µM
